- target: T1, human GFRα3 expressed with a C-terminal hFc tag (human)
- T1 construct: also called hGFRα3-hFc
- T1 sequence (chain, as listed by the source limits assumed): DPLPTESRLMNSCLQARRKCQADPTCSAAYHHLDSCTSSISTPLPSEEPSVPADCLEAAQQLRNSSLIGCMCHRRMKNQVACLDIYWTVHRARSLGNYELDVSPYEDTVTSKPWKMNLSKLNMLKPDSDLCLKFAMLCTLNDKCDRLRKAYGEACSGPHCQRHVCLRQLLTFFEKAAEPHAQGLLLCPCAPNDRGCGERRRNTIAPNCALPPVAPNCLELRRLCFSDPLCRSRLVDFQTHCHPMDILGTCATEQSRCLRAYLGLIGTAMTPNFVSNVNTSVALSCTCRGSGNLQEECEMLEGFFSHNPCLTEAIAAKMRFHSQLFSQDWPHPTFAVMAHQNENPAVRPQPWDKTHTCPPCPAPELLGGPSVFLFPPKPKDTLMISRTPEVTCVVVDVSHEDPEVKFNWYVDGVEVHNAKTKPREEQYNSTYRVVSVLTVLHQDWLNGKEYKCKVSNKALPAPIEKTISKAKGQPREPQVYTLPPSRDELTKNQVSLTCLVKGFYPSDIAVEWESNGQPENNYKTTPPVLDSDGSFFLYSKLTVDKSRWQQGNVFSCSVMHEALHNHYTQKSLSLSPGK
- experimental.protocol: blocking ELISA 1, hGFRα3-hFc to coated hARTEMIN-mmH
Measured pIC50 of individual entries
By convention, pIC50 is the negative base-10 log of a molar concentration.

[ask] Which value of pIC50 has been reported for H4H2344S (antibody, human IgG4, V domains shown, human IgG4 Fc (H4H)) VH: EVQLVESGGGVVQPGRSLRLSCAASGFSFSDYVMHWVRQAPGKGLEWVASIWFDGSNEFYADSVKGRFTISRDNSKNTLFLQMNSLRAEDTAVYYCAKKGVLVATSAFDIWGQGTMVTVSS VL: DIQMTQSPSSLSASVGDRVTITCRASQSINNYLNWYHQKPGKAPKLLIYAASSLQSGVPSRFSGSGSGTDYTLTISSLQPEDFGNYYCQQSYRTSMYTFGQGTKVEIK in the records?
[reply] 9.88

[ask] Which value of pIC50 has been reported for H4H2352S (antibody, human IgG4, V domains shown, human IgG4 Fc (H4H); also called H4H2352S-1) VH: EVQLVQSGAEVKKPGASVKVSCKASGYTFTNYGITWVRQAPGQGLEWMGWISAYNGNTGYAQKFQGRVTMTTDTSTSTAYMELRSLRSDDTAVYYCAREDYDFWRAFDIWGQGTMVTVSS VL: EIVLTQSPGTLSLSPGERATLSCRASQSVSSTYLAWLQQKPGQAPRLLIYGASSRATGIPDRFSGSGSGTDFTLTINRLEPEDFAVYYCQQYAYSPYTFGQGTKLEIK in the records?
[reply] 10.18

[ask] Which value of pIC50 has been reported for H4H2346S (antibody, human IgG4, V domains shown, human IgG4 Fc (H4H)) VH: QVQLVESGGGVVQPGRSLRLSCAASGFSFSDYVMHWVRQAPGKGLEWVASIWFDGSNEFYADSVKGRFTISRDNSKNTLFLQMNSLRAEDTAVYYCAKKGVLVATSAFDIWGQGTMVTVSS VL: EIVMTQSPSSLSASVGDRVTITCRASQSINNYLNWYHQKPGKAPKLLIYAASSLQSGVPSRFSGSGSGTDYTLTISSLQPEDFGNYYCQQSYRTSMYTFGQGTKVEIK in the records?
[reply] 10.01

[ask] Which value of pIC50 has been reported for H4H2292S (antibody, human IgG4, V domains shown, human IgG4 Fc (H4H)) VH: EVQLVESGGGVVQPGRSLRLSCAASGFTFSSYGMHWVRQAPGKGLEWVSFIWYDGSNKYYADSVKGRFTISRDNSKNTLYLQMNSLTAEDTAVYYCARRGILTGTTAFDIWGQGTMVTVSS VL: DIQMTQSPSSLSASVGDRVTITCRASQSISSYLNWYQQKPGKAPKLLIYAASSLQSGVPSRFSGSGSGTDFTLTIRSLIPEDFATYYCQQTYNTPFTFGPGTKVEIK in the records?
[reply] 9.14

[ask] Which value of pIC50 has been reported for H4H2354S (antibody, human IgG4, V domains shown, human IgG4 Fc (H4H); also called H4H2354S-1) VH: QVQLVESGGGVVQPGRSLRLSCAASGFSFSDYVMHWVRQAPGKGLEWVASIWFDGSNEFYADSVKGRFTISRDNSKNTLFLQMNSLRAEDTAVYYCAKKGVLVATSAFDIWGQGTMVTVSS VL: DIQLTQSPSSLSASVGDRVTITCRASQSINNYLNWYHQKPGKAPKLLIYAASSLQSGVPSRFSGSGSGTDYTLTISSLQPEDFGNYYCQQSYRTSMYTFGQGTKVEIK in the records?
[reply] 9.94

[ask] Which value of pIC50 has been reported for H4H2350P (antibody, human IgG4, V domains shown, human IgG4 Fc (H4H)) VH: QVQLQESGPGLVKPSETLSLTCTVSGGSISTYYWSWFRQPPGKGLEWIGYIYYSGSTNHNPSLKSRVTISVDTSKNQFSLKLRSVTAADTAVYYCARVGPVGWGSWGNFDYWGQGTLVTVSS VL: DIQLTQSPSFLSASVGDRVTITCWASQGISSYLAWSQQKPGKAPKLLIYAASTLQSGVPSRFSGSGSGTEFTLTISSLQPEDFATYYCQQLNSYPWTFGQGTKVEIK in the records?
[reply] 9.30

[ask] Which value of pIC50 has been reported for H4H2293P (antibody, human IgG4, V domains shown, human IgG4 Fc (H4H)) VH: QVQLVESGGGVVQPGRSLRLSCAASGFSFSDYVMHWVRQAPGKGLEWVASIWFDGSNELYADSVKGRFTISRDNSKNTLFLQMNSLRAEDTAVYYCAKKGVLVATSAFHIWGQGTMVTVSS VL: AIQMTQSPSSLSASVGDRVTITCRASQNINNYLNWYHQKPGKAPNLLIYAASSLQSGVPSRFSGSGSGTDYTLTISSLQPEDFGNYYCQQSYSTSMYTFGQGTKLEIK in the records?
[reply] 9.59
